// compounds with reported IC50 on PIK3CD (Human) (UniProt O00329), multi-publication
VALUE TYPE: IC50 (nM)

{"COMPOUND": "CC(=O)N[C@H]1CCN([C@H]2CC[C@H](Oc3cc(-n4c(C(F)F)nc5ccccc54)nc(N4CCOCC4)n3)CC2)C1=O", "IC50 [nM]": 16}
{"COMPOUND": "CC(C)(O)C(=O)N1CCN(Cc2csc3c(-c4cnc(N)nc4)nc(N4CCOCC4)nc23)CC1", "IC50 [nM]": 52}
{"COMPOUND": "Nc1ncnc2c1c(-c1cc(O)c(Cl)c(Cl)c1)cn2C1Cc2ccccc2C1", "IC50 [nM]": 12.9}

1 = CCN(CC)c1nccc(-c2sc(NC(=O)N3CCC[C@H]3C(N)=O)nc2C)n1
2 = O=C(CC1CCCO1)N1CC[C@H](Nc2cc(-n3c(C(F)F)nc4ccccc43)nc(N3CCOCC3)n2)C1 (stereo partly shown)
3 = COc1ncc(-c2nc(N3CCOCC3)nc3c(CN4CCC(N5CCC[C@@H]5C)CC4)c(C)sc23)cc1NS(C)(=O)=O
4 = CN(C)CC(=O)N(C)[C@H]1CC[C@H](Nc2nc(N3CCOCC3)nc(-n3c(C(F)F)nc4ccccc43)n2)CC1
Order the records, beginning with the lowest IC50 and ending with the highest. Enter labels, ranked according to the request.
3, 4, 2, 1
(3: 5.8 nM, 4: 16 nM, 2: 25 nM, 1: 98 nM)

P = C=CC(=O)NC1CCN(S(=O)(=O)c2cccc(Nc3ncc4c(n3)N(C)c3ccc(C)cc3C(=O)N4C)c2)CC1
Q = CC(C)(O)C1CCN(Cc2csc3c(-c4cccc5[nH]ccc45)nc(N4CCOCC4)nc23)CC1
Which one would you say has the larger IC50 value: P , or Q ? Please indicate the selected item by its label.
P

I = Cc1cc2c(-c3nc(N4CCOCC4)nc4c(CN5CCC(C(C)(C)O)CC5)csc34)cccc2[nH]1
II = Cc1nc(NC(=O)N2CCC[C@H]2C(N)=O)sc1-c1ccnc(C2(C#N)CC2)c1
III = Cc1nc(NC(=O)N2CC[C@@H](C)[C@H]2C(N)=O)sc1-c1ccnc(C(C)(C)C(F)(F)F)c1
Would you mind ranking these compounds by ascending IC50? Please write the labels in the order that was asked for.
III, I, II
(III: 59 nM, I: 145 nM, II: 538 nM)

====

// read-out IC50, gathered for PIK3CD (Human) (UniProt O00329) from published studies

{"COMPOUND": "CN(C)C1CCN(c2cnc3ccc(-c4ccc5oc(N)nc5c4)cc3n2)CC1", "TARGET OR SYSTEM": "PIK3CD (Human) (UniProt O00329)", "ASSAY VALUE": "< 100 nM"}
{"COMPOUND": "CC(C)n1c(Cn2nc(I)c3c(N)ncnc32)cc2ccccc2c1=O", "TARGET OR SYSTEM": "PIK3CD (Human) (UniProt O00329)", "ASSAY VALUE": "< 10000 nM"}
{"COMPOUND": "CCN1CCN(C(=O)c2cnc3ccc(-c4ccc5oc(N)nc5c4)cn23)CC1", "TARGET OR SYSTEM": "PIK3CD (Human) (UniProt O00329)", "ASSAY VALUE": "> 10000 nM"}
{"COMPOUND": "[2H]C([2H])([2H])[C@H](Nc1ncnc2[nH]cnc12)c1nc2ccc(F)cc2c(=O)n1-c1ccccc1", "TARGET OR SYSTEM": "PIK3CD (Human) (UniProt O00329)", "ASSAY VALUE": "< 20 nM"}
{"COMPOUND": "Cc1cccc2cc(Cn3nc(C#CCO)c4c(N)ncnc43)n(-c3ccccc3F)c(=O)c12", "TARGET OR SYSTEM": "PIK3CD (Human) (UniProt O00329)", "ASSAY VALUE": "< 100 nM"}
{"COMPOUND": "Nc1nc2cc(-c3ccc4ncc(-c5cccnc5)nc4n3)ccc2o1", "TARGET OR SYSTEM": "PIK3CD (Human) (UniProt O00329)", "ASSAY VALUE": "> 10000 nM"}
{"COMPOUND": "C[C@H](Nc1ncnc2[nH]cnc12)c1cc2cccc(Cl)c2c(CC(=O)N2CCOCC2)n1", "TARGET OR SYSTEM": "PIK3CD (Human) (UniProt O00329)", "ASSAY VALUE": "< 1000 nM"}
{"COMPOUND": "CC1CN(c2cnc3ccc(-c4ccc5oc(N)nc5c4)cc3n2)CC(C)N1 (stereo not drawn)", "TARGET OR SYSTEM": "PIK3CD (Human) (UniProt O00329)", "ASSAY VALUE": "< 1000 nM"}

Turning now to a further record.
Request the reported IC50 associated with CN1CCC(Oc2ncnc3ccc(-c4ccc5oc(N)nc5c4)cc23)CC1
< 1000 nM
